target: Mitogen-activated protein kinase kinase kinase 3 (Homo sapiens) (UniProt Q99759); assay: modulators of MEKK3-MEK5 PB1 binding, primary screen, biochemical, wildtype MEKK3, multiplex bead flow cytometry, Alexa488-MEK5 (AID 1529); details: bead-based flow cytometry, Alexa488-MEK5 binding to MEKK3; at 10 µM; actives lie on both sides; 0 = blocked by unlabeled MEK5, 100 = vehicle;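 also: Alexa488 bead fluorescence after subtracting the streptavidin-only scavenger bead signal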
Sequence (Q99759 whole entry, looked up): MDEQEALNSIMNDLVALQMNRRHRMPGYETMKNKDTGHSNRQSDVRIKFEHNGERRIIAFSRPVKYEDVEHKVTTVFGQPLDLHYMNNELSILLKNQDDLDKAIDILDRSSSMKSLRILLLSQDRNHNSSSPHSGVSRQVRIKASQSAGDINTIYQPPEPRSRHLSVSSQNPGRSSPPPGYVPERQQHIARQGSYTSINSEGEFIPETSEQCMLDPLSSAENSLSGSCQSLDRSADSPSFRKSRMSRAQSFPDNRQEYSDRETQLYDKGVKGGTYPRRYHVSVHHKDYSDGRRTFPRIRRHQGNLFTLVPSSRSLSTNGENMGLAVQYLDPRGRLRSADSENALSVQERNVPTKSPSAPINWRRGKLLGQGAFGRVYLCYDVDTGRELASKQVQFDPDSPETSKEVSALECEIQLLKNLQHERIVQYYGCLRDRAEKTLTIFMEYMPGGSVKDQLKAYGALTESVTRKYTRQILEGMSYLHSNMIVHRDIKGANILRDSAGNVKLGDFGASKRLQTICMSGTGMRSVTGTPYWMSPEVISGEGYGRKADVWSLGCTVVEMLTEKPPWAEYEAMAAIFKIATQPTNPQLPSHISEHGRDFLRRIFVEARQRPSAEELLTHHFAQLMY
Out of some 290,000 compounds screened, about 4,200 (1.4%) were called active.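 The calls were made as follows: active = binding response more than 3 SD above or below the average of its plate-row segment, actives on both sides; inconclusive = wells at one plate position flagged as instrument error; inactive = the rest.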 Many of the other results were omitted from the sample, so actives are more common in it than they were.
Pick one and only one: t = active, f = inactive

- Molecule: "Cc1cnc(CN(C)C(=O)C2CCC(=O)N(CCc3cccc(F)c3)C2)[nH]1 (stereo not given)"
  Measured Target: "Mitogen-activated protein kinase kinase kinase 3 (Homo sapiens) (UniProt Q99759)"
  Group Label: "f"
- Molecule: "CCOC(=O)c1ccc(NC(=O)CNC(=O)c2ccco2)cc1"
  Measured Target: "Mitogen-activated protein kinase kinase kinase 3 (Homo sapiens) (UniProt Q99759)"
  Group Label: "f"
- Molecule: "C/C(=N\\NC(=O)c1ccccc1F)c1ccccn1"
  Measured Target: "Mitogen-activated protein kinase kinase kinase 3 (Homo sapiens) (UniProt Q99759)"
  Group Label: "f"
- Molecule: "Cc1ccc(C(=O)N2CCC(n3nccc3NC(=O)Nc3cccc(F)c3)CC2)cn1"
  Measured Target: "Mitogen-activated protein kinase kinase kinase 3 (Homo sapiens) (UniProt Q99759)"
  Group Label: "f"
- Molecule: "CC(C)(C)NC(=O)/C(=C/c1cccnc1)NC(=O)c1ccco1"
  Measured Target: "Mitogen-activated protein kinase kinase kinase 3 (Homo sapiens) (UniProt Q99759)"
  Group Label: "f"

I would be grateful if you could indicate the recorded call for "COC(=O)c1c(NC(=O)CCCC(=O)O)sc2c1CCCCC2" .
f

Try "O=C(CCS(=O)(=O)c1ccc(Br)cc1)NCCc1ccc(Cl)cc1" next.
f

Try "CN1C(=O)/C(=C\c2ccc(-c3ccccc3)o2)SC1=S" next.
t

Try "COc1ccc(/C=C2\SC(=S)N(CCCC(=O)NC3CCCC3)C2=O)cc1OC" next.
f

Try "COC(C[C@@H](O)C[C@@H](O)[C@H](C)OCc1ccccc1)OC" next.
f

Try CC1CN(C(=O)c2cc(COc3c(F)cccc3F)on2)CCN1C (stereo not given) next.
f

Try "CCOCCCNC(=O)c1ccc(CS(=O)(=O)c2cccc(C(F)(F)F)c2)o1" next.
f

Try "CCN(CC)CCCNC(=O)c1cn(C)c2ccc(S(=O)(=O)N(C)C3CCCCC3)cc2c1=O" next.
f

---

biological target: Mitogen-activated protein kinase kinase kinase 3 (Homo sapiens); experiment: modulators of MEKK3-MEK5 PB1 binding, primary screen, biochemical, wildtype MEKK3, multiplex bead flow cytometry, Alexa488-MEK5 (AID 1529); conditions: bead-based flow cytometry, Alexa488-MEK5 binding to MEKK3; at 10 µM; actives lie on both sides; 0 = blocked by unlabeled MEK5, 100 = vehicle
In all, about 290,000 compounds went through this assay and about 4,200 (1.4%) were called active.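 Rule for the calls: active = binding response more than 3 SD above or below the average of its plate-row segment, actives on both sides; inconclusive = wells at one plate position flagged as instrument error; inactive = the rest.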 This is one part of a sample in which actives are shown more often than they occur.
Pick one and only one: active, inactive

Please review the entries below; each comes with its answer.
- Compound: "O=C(Nc1ccc2oc(-c3ccc4ccccc4c3)nc2c1)c1cccs1"
  Group Label: "inactive"
- Compound: "COc1ccc2nc(Nc3nc(-c4cc5ccccc5oc4=O)cs3)sc2c1"
  Group Label: "inactive"
- Compound: "CCS(=O)(=O)Nc1ccc(C2=NN(C(C)=O)C(c3cccs3)C2)cc1 (stereo unspecified)"
  Group Label: "inactive"

I would be grateful if you could indicate the recorded call for "O=c1cc(N2CCN(Cc3ccccc3)CC2)c(-c2ccccc2)n[nH]1" .
inactive

Try "N=C1/C(=C/c2cccn2-c2cccc([N+](=O)[O-])c2)C(=O)N=C2SC=CN12" next.
active

Try CCCCC(CC)CNCc1cccn1CCN1CCOCC1 (stereo unspecified) next.
inactive

Try COc1ccc(C2CC(=O)Nc3cc(C)c(C)cc32)c(OC)c1OC (stereo unspecified) next.
active

Try C=CCn1c(C(C)NC(=O)CC)nc2ccccc21 (stereo unspecified) next.
inactive

Try "O=C(O)C1=NN(c2c(F)c(F)cc(F)c2F)C(=O)CC1" next.
inactive

Try "O=C(N/N=C/c1ccccc1O)/C(=C/c1ccccc1)CCO" next.
inactive

Try "O=S(=O)(Nc1ccccc1Br)c1cccs1" next.
inactive

---

biological target: Mitogen-activated protein kinase kinase kinase 3 (Homo sapiens) (UniProt Q99759); experiment: modulators of MEKK3-MEK5 PB1 binding, primary screen, biochemical, wildtype MEKK3, multiplex bead flow cytometry, Alexa488-MEK5 (AID 1529); conditions: bead-based flow cytometry, Alexa488-MEK5 binding to MEKK3; at 10 µM; actives lie on both sides; 0 = blocked by unlabeled MEK5, 100 = vehicle;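 also: Alexa488 bead fluorescence after subtracting the streptavidin-only scavenger bead signal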
Screen size: about 290,000 compounds; about 4,200 (1.4%) were called active.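 The calls were made as follows: active = binding response more than 3 SD above or below the average of its plate-row segment, actives on both sides; inconclusive = wells at one plate position flagged as instrument error; inactive = the rest.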 The sample holds actives, similar compounds and a random draw of the others, so the mix is not that of the screen.
Pick one and only one: active, inactive

Please review the entries below; each comes with its answer.
- Compound: "CCCCN1C(=O)/C(=C(/C#N)C(N)=O)c2ccccc21"
  Group Label: "active"
- Compound: "COc1ccc(CCn2c(NN=C3CCCC3)nc3c2c(=O)[nH]c(=O)n3C)cc1"
  Group Label: "active"
- Compound: "C/C(=N\\Nc1ncc(Cl)cc1Cl)c1ccc(S(=O)(=O)NCc2ccco2)cc1"
  Group Label: "inactive"
- Compound: "O=C(O)CCCN1C(=O)c2ccccc2Sc2ncccc21"
  Group Label: "inactive"

I would be grateful if you could indicate the recorded call for COc1ccc(Cc2nc3ccc(C(=O)N4CCC(N(C)C)C4)cc3o2)cc1 (stereo unspecified) .
inactive

Try "CCCc1nnc(NC(=O)CCC(=O)NC2CC2)s1" next.
inactive

---

biological target: Mitogen-activated protein kinase kinase kinase 3 (Homo sapiens) (UniProt Q99759); assay: modulators of MEKK3-MEK5 PB1 binding, primary screen, biochemical, wildtype MEKK3, multiplex bead flow cytometry, Alexa488-MEK5 (AID 1529); conditions: bead-based flow cytometry, Alexa488-MEK5 binding to MEKK3; at 10 µM; actives lie on both sides; 0 = blocked by unlabeled MEK5, 100 = vehicle;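 also: Alexa488 bead fluorescence after subtracting the streptavidin-only scavenger bead signal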
Screen size: about 290,000 compounds; about 4,200 (1.4%) were called active.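 The calls were made as follows: active = binding response more than 3 SD above or below the average of its plate-row segment, actives on both sides; inconclusive = wells at one plate position flagged as instrument error; inactive = the rest.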 This excerpt belongs to a sample that is enriched for actives.
Pick one and only one: TRUE = active, FALSE = inactive

- Input Smiles: "COc1ccc(-c2csc(Nc3ccc(O)cc3)n2)cc1"
  Group Label: "FALSE"
- Input Smiles: "CCO[C@H]1OC(C(=O)N2CCOCC2)=C[C@@H](c2ccc3c(c2)OCO3)[C@@H]1CCCO"
  Group Label: "TRUE"
- Input Smiles: "COc1ccccc1CCNS(=O)(=O)c1cn(C)nc1C"
  Group Label: "FALSE"
- Input Smiles: "Cc1ccc(OC(=O)CCC(=O)Nc2ccc(Br)cc2)cc1"
  Group Label: "FALSE"

I would be grateful if you could indicate the recorded call for "CCO[C@@H]1OC(C(=O)N2CCOCC2)=C[C@H](C)[C@H]1CCCO" .
FALSE

Try "COC(=O)CCc1sc(Nc2ccc(Br)cc2)nc1-c1ccc(OC)cc1" next.
TRUE

---

target: Mitogen-activated protein kinase kinase kinase 3 (Homo sapiens) (UniProt Q99759); assay: modulators of MEKK3-MEK5 PB1 binding, primary screen, biochemical, wildtype MEKK3, multiplex bead flow cytometry, Alexa488-MEK5 (AID 1529); conditions: bead-based flow cytometry, Alexa488-MEK5 binding to MEKK3; at 10 µM; actives lie on both sides; 0 = blocked by unlabeled MEK5, 100 = vehicle;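 also: Alexa488 bead fluorescence after subtracting the streptavidin-only scavenger bead signal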
The whole screen tested about 290,000 compounds, of which about 4,200 (1.4%) were called active.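 The calls were made as follows: active = binding response more than 3 SD above or below the average of its plate-row segment, actives on both sides; inconclusive = wells at one plate position flagged as instrument error; inactive = the rest.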 The full list was thinned out, with actives kept by preference.
Pick one and only one: label 1 = active, label 0 = inactive

Please review the entries below; each comes with its answer.
- Molecule: "COc1ccccc1N1CCN(c2nc(C)cc(=O)[nH]2)CC1"
  Group Label: "label 0"
- Molecule: "C=CCN(CC=C)S(=O)(=O)c1ccc(C(=O)Nc2sc3c(c2C(N)=O)CCCCC3)cc1"
  Group Label: "label 1"
- Molecule: "CSCCC(Nc1ccc(S(=O)(=O)N2CCOCC2)cc1[N+](=O)[O-])C(=O)OCC(=O)N(C(C)C)C(C)C (stereo not given)"
  Group Label: "label 0"
- Molecule: "NC(=O)c1c(NC(=O)c2ccccc2)sc2c1CCCC2"
  Group Label: "label 0"
- Molecule: "C[C@H]1CC[C@]2(O[C@@H](CCO)C[C@@H](O)[C@@H]2O)O1"
  Group Label: "label 0"

I would be grateful if you could indicate the recorded call for "Cc1ccc(OCC(=O)Nc2ccc3oc(=O)ccc3c2)cc1C" .
label 0

Try "O=C(CN1CCN(Cc2ccccc2)CC1)Nc1ccc(F)c(F)c1" next.
label 0

Try COc1ccc(NC(=O)N2CCCC(C(=O)Nc3ccccc3OC)C2)cc1 (stereo not given) next.
label 0
